Where do the numbers come from? From patent US20230049752A1.

- system_name: human Claudin-6 (CLDN6) (human) (UniProt P56747)
- method_description: FACS, limiting dilution, ARK2 cells
measure: FACS signal at 40 nM
No unit in the answer, only the number.

1) AB S2 (antibody, V domains shown) VH: EVQLLESGGGLVQPGGSMRLSCAASGFTFSNYWMNWVRQAPGKGLEWIAQIRLKSDNYATHYADSVKGRFTISRDDSKRTVYLQMNSLRAEDTGTYYCSDGPPSGSWGQGTLLTVSS VL: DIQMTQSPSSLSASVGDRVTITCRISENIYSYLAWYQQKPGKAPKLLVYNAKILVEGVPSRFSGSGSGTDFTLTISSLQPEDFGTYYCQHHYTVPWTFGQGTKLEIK; 21000

Tell us which FACS signal at 40 nM value is on record for AB1-11 (antibody, V domains shown, humanized; also called humanized AB1-11; HU-11) VH: QVQLVQSGAEVKKPGASVKMSCKASGYTFTTYTMHWVRQAPGQGLEWIGFINPSSGYTDYAQKFQGRVTLTADKSTSTVYMELSSLRSEDTAVYYCANGDYYVAYWGQGTLVTVSS VL: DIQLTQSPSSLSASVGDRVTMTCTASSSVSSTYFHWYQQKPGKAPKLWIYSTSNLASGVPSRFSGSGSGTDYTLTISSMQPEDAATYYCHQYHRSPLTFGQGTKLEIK
3460

Tell us which FACS signal at 40 nM value is on record for AB S11 (antibody, V domains shown) VH: QVQLVQSGAEVKKPGASVKMSCKASGYTFTTYTIHWVRQAPGQGLEWIGVINPSSGYTEYAQKFQGRVTLTADKSTSTVYMELSSLRSEDTAVYFCANGDYYVAYWGQGTLVTVSS VL: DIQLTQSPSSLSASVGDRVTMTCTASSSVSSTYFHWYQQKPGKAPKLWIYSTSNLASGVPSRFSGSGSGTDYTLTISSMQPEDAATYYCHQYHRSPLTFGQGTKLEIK
59400
